# Assayed Target: Angiotensin II receptor (Rattus norvegicus) (UniProt P29089+P25095+P35351)
# Experiment Notes: In vivo inhibitory activity against angiotensin II induced pressor response in anesthetized normotensive rats
# Type: functional, organism-based
Quantity Measured: ID50 (mg/kg)

1) C=C(C)c1nc(CCC)n(Cc2ccc(-c3ccccc3-c3nn[nH]n3)cc2)c1C(=O)O; 0.012
2) CCCc1nc(CO)c(C(=O)O)n1Cc1ccc(-c2ccccc2C(=O)O)cc1; 0.069
3) CCCc1nc(C(C)C)c(C(=O)O)n1Cc1ccc(-c2ccccc2-c2nn[nH]n2)cc1; 0.014
4) CCCc1nc(C(C)O)c(C(=O)O)n1Cc1ccc(-c2ccccc2C(=O)O)cc1 (configuration not stated); 0.062
5) CCCCc1nc(Cl)c(CO)n1Cc1ccc(-c2ccccc2C(=O)O)cc1; 2.3

A: CCCc1nc(C(=O)O)cn1Cc1ccc(-c2ccccc2-c2nn[nH]n2)cc1
B: CCCCc1nc(Cl)c(C(=O)O)n1Cc1ccc(-c2ccccc2C(=O)O)cc1
Returns: the label, A or B , whose recorded ID50 is the lower number. I would appreciate it if you answered with the label of your choice. B

a: CCCc1nc(CC)c(C(=O)O)n1Cc1ccc(-c2ccccc2-c2nn[nH]n2)cc1
b: CCCc1nc(C(C)(C)O)c(C(=O)O)n1Cc1ccc(-c2ccccc2C(=O)O)cc1
c: CCCCc1nc(Cl)c(C(=O)O)n1Cc1ccc(-c2ccccc2-c2nn[nH]n2)cc1 [CARBOXYLIC ACID METABOLITE]
d: CCCc1nc(C(=O)O)c(CO)n1Cc1ccc(-c2ccccc2-c2nn[nH]n2)cc1
Place the items in sequence of falling ID50. Output spec: a listing of the labels in the requested order. d, c, b, a
(d: 1.7 mg/kg, c: 0.1 mg/kg, b: 0.056 mg/kg, a: 0.019 mg/kg)

Origin of the recorded values: ChEMBL document CHEMBL1129298
